List of pEC50 values.
Molecular target: cloned human M2 receptor (human Muscarinic receptor subtype 2) (Homo sapiens)
Construct: purchased Perkin-Elmer RBHM2M; host or cells: Chinese hamster ovary cells (CHO) membranes
Sequence (P08172 1-466): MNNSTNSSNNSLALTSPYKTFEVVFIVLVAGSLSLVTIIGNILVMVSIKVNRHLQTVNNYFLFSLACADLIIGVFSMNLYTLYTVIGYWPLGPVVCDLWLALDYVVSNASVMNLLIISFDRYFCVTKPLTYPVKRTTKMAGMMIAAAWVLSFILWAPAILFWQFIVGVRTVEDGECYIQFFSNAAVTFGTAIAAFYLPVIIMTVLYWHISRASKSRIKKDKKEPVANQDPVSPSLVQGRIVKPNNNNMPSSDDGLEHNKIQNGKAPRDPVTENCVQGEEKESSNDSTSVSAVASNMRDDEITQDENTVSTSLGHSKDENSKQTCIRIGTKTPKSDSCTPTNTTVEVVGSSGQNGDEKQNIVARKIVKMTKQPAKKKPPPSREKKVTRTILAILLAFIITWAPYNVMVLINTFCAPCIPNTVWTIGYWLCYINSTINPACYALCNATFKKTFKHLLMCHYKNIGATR
Assay: hM2 receptor GTPγS binding
Format: biochemical
Settings: CHO cell membranes expressing hM2; [35S]GTPγS binding; read-out: hM2 EC50
pEC50: −log10 of the molar value.
property name: pEC50

>>> df
                                    molecule  result_qualifier  measurement
 0  CCOC(=O)N1CCC(C)(N2CCC(n3c(=O)[nH]c4cc(F)c(F)cc43)CC2)C1 (single isomer, unassigned) [Example 58]                 =         5.68
 1  CCOC(=O)N1CCC(C)(N2CCC(N3C(=O)Cc4cc(F)ccc43)CC2)C1 (single isomer, unassigned) [Example 80]                 =         5.49
 2  Cc1ccc2c(c1)[nH]c(=O)n2C1CCN(C2(C)CCN(C(=O)OC(C)C)C2)CC1 (single isomer, unassigned) [Example 14]                 =         5.82
 3  COC(=O)N1CCC(C)(N2CCC(n3c(=O)[nH]c4cc(F)c(F)cc43)CC2)C1 (single isomer, unassigned) [Example 60]                 =         5.99
 4  COC(=O)N1CCC(C)(N2CCC(n3c(=O)[nH]c4ccc(C)cc43)CC2)C1 (centres unmarked) [Example 17]                 =         6.15
 5  CCOC(=O)N1CCC(C)(N2CCC(n3c(=O)[nH]c4cc(F)ccc43)CC2)C1 (single isomer, unassigned) [Example 6]                 =         6.23
 6  C#CCOC(=O)N1CCC(C)(N2CCC(n3c(=O)[nH]c4ccc(C)cc43)CC2)C1 (single isomer, unassigned) [Example 43]                 =         6.96
 7  CCOC(=O)N1CCC(C)(N2CCC(n3c(=O)[nH]c4ccc(F)cc43)CC2)C1 (single isomer, unassigned) [Example 49]                 =         5.34
 8  CC1(N2CCC(n3c(=O)[nH]c4cc(F)ccc43)CC2)CCN(C(=O)OCCF)C1 (centres unmarked) [Example 10]                 =         5.67
 9  C#CCOC(=O)N1CCC(C)(N2CCC(n3c(=O)[nH]c4cc(F)ccc43)CC2)C1 (single isomer, unassigned) [Example 25]                 =         6.84
10  CC1(N2CCC(n3c(=O)[nH]c4cc(F)ccc43)CC2)CCN(C(=O)OCCF)C1 (single isomer, unassigned) [Example 24]                 =         5.87
11  C#CCOC(=O)N1CCC(C)(N2CCC(n3c(=O)[nH]c4cc(F)ccc43)CC2)C1 (centres unmarked) [Example 11]                 =         6.83
12  CC1(N2CCC(n3c(=O)[nH]c4cc(F)c(F)cc43)CC2)CCN(C(=O)OCCF)C1 (single isomer, unassigned) [Example 61]                 =         5.77
13  Cc1ccc2[nH]c(=O)n(C3CCN(C4(C)CCN(C(=O)OC(C)C)C4)CC3)c2c1 (single isomer, unassigned) [Example 39]                 <         4.89
